Tested on: HCV 1b-BB7 subgenomic replicon
assay_summary: microbe, parasite or virus in culture
Type: cell-based, HCV genotype 1b
experimental_parameters: Hepatitis C virus, stable replicon, strain 1b BB7, 5% FBS + 40% human plasma; read-out: 1b BB7 5% FBS + 40% Human Plasma EC50
outcome_measure: EC50 (µM)
# output: bare number, implied unit µM

INSERT INTO measurements (compound, test_system, meas_value) VALUES
  ('CS(=O)(=O)N(CCCCCO)c1cc2oc(-c3ccc(F)cc3)c(C3=NOCCN3)c2cc1C1CC1', 'HCV 1b-BB7 subgenomic replicon', 0.093),
  ('CS(=O)(=O)N(CC#N)c1cc2oc(-c3ccc(F)cc3)c(-c3ncc[nH]3)c2cc1C1CC1', 'HCV 1b-BB7 subgenomic replicon', 0.195),
  ('COCCN(c1cc2oc(-c3ccc(F)cc3)c(-c3ncc[nH]3)c2cc1C1CC1)S(C)(=O)=O', 'HCV 1b-BB7 subgenomic replicon', 0.148);

Now take the following compound into account.
## Task Query: EC50; subject: "CS(=O)(=O)N(Cc1cnc(-c2ccc3[nH]ccc3c2)s1)c1ccc2c(-c3ncc[nH]3)c(-c3ccccc3)oc2c1"
## Result 9.24

* * *

System: HCV 1b-BB7 subgenomic replicon
assay_summary: microbe, parasite or virus in culture
Type: cell-based, HCV genotype 1b
experimental_parameters: Hepatitis C virus, stable replicon, strain 1b BB7, 5% FBS + 40% human plasma; read-out: 1b BB7 5% FBS + 40% Human Plasma EC50
EC50 by entry:
Express the result in µM but write the number alone.

Previously resolved entries follow.
INSERT INTO measurements (molecule, display_unit, meas_value) VALUES
  ('COc1ccc(CN(c2cc3oc(-c4ccc(F)cc4)c(-c4ncc(C)[nH]4)c3cc2C2CC2)S(C)(=O)=O)cc1', 'µM', 2.03),
  ('CS(=O)(=O)N(CCCCF)c1cc2oc(-c3ccc(F)cc3)c(-c3ncc[nH]3)c2cc1C1CC1', 'µM', 0.096);

## Task Quick check: EC50 of "Cc1c[nH]c(-c2c(-c3ccc(F)cc3)oc3cc(N(CCCCO)S(C)(=O)=O)c(C4CC4)cc23)n1" ?
## Result 0.244

## Task What value of EC50 has been reported for the following molecule? "CCOC(=O)CCCN(c1cc2oc(-c3ccc(F)cc3)c(C3=NOCCN3)c2cc1C1CC1)S(C)(=O)=O"
## Result 0.388

## Task // returns reported EC50 for input "CS(=O)(=O)N(CC1CC1)c1cc2oc(-c3ccc(F)cc3)c(-c3ncc[nH]3)c2cc1C1CC1"
## Result 0.224

## Task May I ask what EC50 has been recorded for CS(=O)(=O)N(CCC(O)CO)c1cc2oc(-c3ccc(F)cc3)c(-c3ncc[nH]3)c2cc1C1CC1 (centres unmarked) ?
## Result 0.315

## Task Requested read-out: EC50. Entry: "CS(=O)(=O)N(CCCc1nnn[nH]1)c1cc2oc(-c3ccc(F)cc3)c(C3=NOCCN3)c2cc1C1CC1"
## Result 10

## Task EC50 lookup needed for CC(c1ccccc1)N(c1ccc2c(-c3ncc[nH]3)c(-c3ccccc3)oc2c1)S(C)(=O)=O (centres unmarked) , thanks.
## Result 7.3

* * *

Tested on: HCV 1a-H77 subgenomic replicon
assay_summary: microbe, parasite or virus in culture
Assay type: cell-based, HCV genotype 1a
experimental_parameters: Hepatitis C virus, stable replicon, 5% FBS, absence of human plasma; read-out: Stable Replicon 1a H77 5% FBS EC50
This listing pairs molecules with measured pEC50.
By convention, pEC50 is the negative base-10 log of a molar concentration.

INSERT INTO measurements (molecule, meas_value) VALUES
  ('CS(=O)(=O)N(CC1CCNC1)c1cc2oc(-c3ccc(F)cc3)c(-c3ncc[nH]3)c2cc1C1CC1 (centres unmarked) [Example 51]', 6.00),
  ('COc1ccc(CN(c2cc3oc(-c4ccc(F)cc4)c(-c4nc(Cl)c[nH]4)c3cc2C2CC2)S(C)(=O)=O)cc1 [Example 159]', 6.00),
  ('CS(=O)(=O)N(Cc1cccc(C(F)(F)F)c1)c1ccc2c(-c3ncc[nH]3)c(-c3ccccc3)oc2c1 [Example 32]', 5.63),
  ('CS(=O)(=O)N(CCCO)c1cc2oc(-c3ccc(F)cc3)c(-c3ncc[nH]3)c2cc1C1CC1 [Example 65]', 7.99);

## Task Given CS(=O)(=O)N(CC1CCCCC1)c1cc2oc(-c3ccc(F)cc3)c(-c3ncc[nH]3)c2cc1C1CC1 [Example 45] , state its recorded pEC50.
## Result 7.06

## Task Entry CS(=O)(=O)N(Cc1cc(O)no1)c1cc2oc(-c3ccc(F)cc3)c(-c3ncc[nH]3)c2cc1C1CC1 [Example 190] : reported pEC50 = ?
## Result 6.58

## Task Sample CCS(=O)(=O)CCN(c1cc2oc(-c3ccc(F)cc3)c(-c3ncc[nH]3)c2cc1C1CC1)S(C)(=O)=O [Example 96] — what was its pEC50?
## Result 8.20

## Task // returns reported pEC50 for input C[S+]([O-])CCCN(c1cc2oc(-c3ccc(F)cc3)c(C3=NOCCN3)c2cc1C1CC1)S(C)(=O)=O (centres unmarked) [Example 139]
## Result 7.23

## Task Item CC1NC(c2c(-c3ccc(F)cc3)oc3cc(N(CCO)S(C)(=O)=O)c(C4CC4)cc23)=NO1 (centres unmarked) [Example 158] has what recorded pEC50?
## Result 7.63

## Task Using the record for CS(=O)(=O)N(CCCCC(F)=C(F)F)c1cc2oc(-c3ccc(F)cc3)c(C3=NOCCN3)c2cc1C1CC1 [Example 120] , report its pEC50.
## Result 7.76

## Task // lookup pEC50 for CS(=O)(=O)N(CCC(F)(F)F)c1cc2oc(-c3ccc(F)cc3)c(C3=NOCCN3)c2cc1C1CC1 [Example 118]
## Result 7.70

## Task // query pEC50 value for entry Cn1ccc2cc(-c3ncc(CN(c4ccc5c(-c6ncc[nH]6)c(-c6ccccc6)oc5c4)S(C)(=O)=O)s3)ccc21 [Example 25]
## Result 6.58

## Task Report pEC50 for CS(=O)(=O)N(CCCS(N)(=O)=O)c1cc2oc(-c3ccc(F)cc3)c(C3=NOCCN3)c2cc1C1CC1 [Example 124] please.
## Result 7.35

## Task Fill in the blank: the reported pEC50 of CS(=O)(=O)N(CC1CCOCC1)c1cc2oc(-c3ccc(F)cc3)c(-c3ncc[nH]3)c2cc1C1CC1 [Example 38] is ____.
## Result 7.99

Values compiled from patent US20160355530A1.
